Subject of test: human GPR119 (Homo sapiens, UniProt Q8TDV5)
Sequence (Q8TDV5 1-308 limits assumed): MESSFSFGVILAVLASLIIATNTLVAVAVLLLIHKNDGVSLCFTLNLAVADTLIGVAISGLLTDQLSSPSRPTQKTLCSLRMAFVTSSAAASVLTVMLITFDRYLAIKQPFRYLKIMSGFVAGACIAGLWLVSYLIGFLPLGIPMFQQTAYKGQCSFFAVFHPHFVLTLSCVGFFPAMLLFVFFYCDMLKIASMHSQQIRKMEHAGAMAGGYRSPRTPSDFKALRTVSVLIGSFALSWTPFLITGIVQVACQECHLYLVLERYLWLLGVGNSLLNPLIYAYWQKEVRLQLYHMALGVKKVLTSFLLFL
Measurement notes: Measurement of GPR119 signaling by cAMP (LANCE cAMP kit or HTRF) in HEK293 cells transfected with human GPR119
Protocol conditions: agonist cAMP response in HEK293 cells stably transfected with human GPR119; patent does not say which of the two cAMP formats (LANCE or HTRF)
pEC50: −log10 of the molar value.
Outcome measure: pEC50

Molecule	pEC50
CN(CCO)C(=O)Cc1ccc(OCC[C@@H]2C[C@@H]2C2CCN(c3ncc(Cl)cn3)CC2)cc1F	8.77
O=C(Cc1ccc(OCC[C@@H]2C[C@@H]2C2CCN(c3ncc(Cl)cn3)CC2)cc1F)NCC1(O)CC1	8.28
COC(=O)C1CN(C(=O)Cc2ccc(OCC[C@@H]3C[C@@H]3C3CCN(c4ncc(Cl)cn4)CC3)cc2F)C1	8.66
C[C@H]1CCCN1C(=O)Cc1ccc(OCC[C@@H]2C[C@@H]2C2CCN(c3ncc(Cl)cn3)CC2)cc1F [Example 117]	8.77

[A] COc1cc(OCC[C@@H]2C[C@@H]2C2CCN(c3ncc(Cl)cn3)CC2)ccc1CC(=O)N1CCC1
[B] O=C(Cc1ccc(OCC[C@@H]2C[C@@H]2C2CCN(c3ncc(Cl)cn3)CC2)cc1F)NCC1CC1
Kindly identify which of A and B has the larger recorded pEC50 value. Give the chosen item's label as your response.
B

[A] O=C(Cc1ccc(OCC[C@@H]2C[C@@H]2C2CCN(c3ncc(Cl)cn3)CC2)cc1F)N1Cc2sccc2C(O)C1 (stereo partly shown)
[B] COCc1cnc(N2CCC([C@H]3C[C@H]3CCOc3cc(F)c(CC(=O)N4CC(OC)C4)c(F)c3)CC2)nc1
[C] O=C(Cc1ccc(OCC[C@@H]2C[C@@H]2C2CCN(c3ncc(Cl)cn3)CC2)cc1F)NC1CCC1
Let's sort these by pEC50, smallest first. Go ahead? Write the labels, ordered according to the request.
C, A, B
(C: 8.38, A: 9.01, B: 9.46)

[P] CCOc1cnc(N2CCC([C@H]3C[C@H]3CCOc3cc(F)c(CC(=O)N4CCC4)c(F)c3)CC2)nc1
[Q] O=C(Cc1ccc(OCC[C@@H]2C[C@@H]2C2CCN(c3ncc(Cl)cn3)CC2)cc1F)N1C[C@H](F)[C@@H](F)C1
[R] COCc1cnc(N2CCC([C@H]3C[C@H]3CCOc3ccc(CC(=O)N4CC(C)(O)C4)c(Cl)c3)CC2)nc1
Order the records so the highest pEC50 appears first and the lowest last. Quick reminder: the answer is the labels in the order asked.
P, Q, R
(P: 9.85, Q: 9.11, R: 8.82)

----------
Subject of test: human GPR119 (Homo sapiens)
Measurement notes: Measurement of GPR119 signaling by cAMP (LANCE cAMP kit or HTRF) in HEK293 cells transfected with human GPR119
Protocol conditions: agonist cAMP response in HEK293 cells stably transfected with human GPR119; patent does not say which of the two cAMP formats (LANCE or HTRF)
pEC50: −log10 of the molar value.
Outcome measure: pEC50

Compound	Subject of test	pEC50
CCc1cnc(N2CCC([C@H]3C[C@H]3CCOc3ccc(CC(=O)N4CCC4)c(F)c3)CC2)nc1	human GPR119 (Homo sapiens)	9.40
O=C(Cc1ccc(OCC[C@@H]2C[C@@H]2C2CCN(c3ncc(Cl)cn3)CC2)cc1F)NC(C1CC1)C1CC1	human GPR119 (Homo sapiens)	8.24
O=C(Cc1ccc(OCC[C@@H]2C[C@@H]2C2CCN(c3ncc(Cl)cn3)CC2)cc1F)N1CCc2cncnc2C1	human GPR119 (Homo sapiens)	9.54
O=C(Cc1ccc(OCC[C@@H]2C[C@@H]2C2CCN(c3ncc(Cl)cn3)CC2)cc1F)N1CCc2c(C(F)(F)F)n[nH]c2C1	human GPR119 (Homo sapiens)	8.54
Cn1nc(C(F)(F)F)c2c1CCN(C(=O)Cc1ccc(OCC[C@@H]3C[C@@H]3C3CCN(c4ncc(Cl)cn4)CC3)cc1F)C2	human GPR119 (Homo sapiens)	8.70

[1] CC1c2cccn2CCN1C(=O)Cc1ccc(OCC[C@@H]2C[C@@H]2C2CCN(c3ncc(Cl)cn3)CC2)cc1F (stereo partly shown)
[2] COCc1cnc(N2CCC([C@H]3C[C@H]3CCOc3ccc(CC(=O)N4CC(C)C4)cc3)CC2)nc1
Quick one: lower pEC50, 1 or 2 ? Mark your answer with the label of the selected entry.
2

[1] COc1cnc(N2CCC([C@H]3C[C@H]3CCOc3ccc(CC(=O)N4CC(OC)C4)c(F)c3)CC2)nc1
[2] NC(=O)C1CCN1C(=O)Cc1ccc(OCC[C@@H]2C[C@@H]2C2CCN(c3ncc(Cl)cn3)CC2)cc1F (stereo partly shown)
Of the two listed items, 1 and 2 , which carries the larger pEC50 figure? Give the label of your selection.
1
(1: 9.01, 2: 8.37)

[I] CC(F)(F)CNC(=O)Cc1ccc(OCC[C@@H]2C[C@@H]2C2CCN(c3ncc(Cl)cn3)CC2)cc1F
[II] O=C(Cc1ccc(OCC[C@@H]2C[C@@H]2C2CCN(c3ncc(Cl)cn3)CC2)cc1F)N1CCC(F)(F)CC1
For the pair I and II , which member has the lower pEC50 number? Record your answer as the label of the chosen record.
I

----------
Subject of test: human GPR119 (Homo sapiens, UniProt Q8TDV5)
Measurement notes: Measurement of GPR119 signaling by cAMP (LANCE cAMP kit or HTRF) in HEK293 cells transfected with human GPR119
Protocol conditions: agonist cAMP response in HEK293 cells stably transfected with human GPR119; patent does not say which of the two cAMP formats (LANCE or HTRF)
Outcome measure: EC50 (nM)

Compound	Subject of test	Outcome measure	Measured number
O=C(Cc1ccc(OCC[C@@H]2C[C@@H]2C2CCN(c3ncc(Cl)cn3)CC2)cc1F)N1CCC1 [Example 60]	human GPR119 (Homo sapiens, UniProt Q8TDV5)	EC50	0.19
COCc1cnc(N2CCC([C@H]3C[C@H]3CCOc3ccc(CC(=O)N(C)C)c(F)c3)CC2)nc1 [Example 47]	human GPR119 (Homo sapiens, UniProt Q8TDV5)	EC50	1.3
CC[C@@H](CO)NC(=O)Cc1ccc(OCC[C@@H]2C[C@@H]2C2CCN(c3ncc(Cl)cn3)CC2)cc1F [Example 103]	human GPR119 (Homo sapiens, UniProt Q8TDV5)	EC50	9.7
CN(CCCO)C(=O)Cc1ccc(OCC[C@@H]2C[C@@H]2C2CCN(c3ncc(Cl)cn3)CC2)cc1F [Example 153]	human GPR119 (Homo sapiens, UniProt Q8TDV5)	EC50	1.6
COCc1cnc(N2CCC([C@H]3C[C@H]3CCOc3ccc(CC(=O)N4CC(O)C4)c(Cl)c3)CC2)nc1 [Example 29]	human GPR119 (Homo sapiens, UniProt Q8TDV5)	EC50	2.4

[a] CCC(C)NC(=O)Cc1ccc(OCC[C@@H]2C[C@@H]2C2CCN(c3ncc(Cl)cn3)CC2)cc1F (some centres unmarked) [Example 100]
[b] CCc1cnc(N2CCC([C@H]3C[C@H]3CCOc3ccc(CC(=O)N4CCC4)cn3)CC2)nc1 [Example 241]
[c] O=C(Cc1ccc(OCC[C@@H]2C[C@@H]2C2CCN(c3ncc(Cl)cn3)CC2)cc1Cl)N1CCC1 [Example 20]
Hey, quick one: sort these by EC50, largest value first please. Your task in answering is to list the labels in the requested order.
b, a, c

----------
Subject of test: human GPR119 (Homo sapiens)
Measurement notes: Measurement of GPR119 signaling by cAMP (LANCE cAMP kit or HTRF) in HEK293 cells transfected with human GPR119
Protocol conditions: agonist cAMP response in HEK293 cells stably transfected with human GPR119; patent does not say which of the two cAMP formats (LANCE or HTRF)
pEC50: −log10 of the molar value.
Outcome measure: pEC50

Examples with their reported pEC50 follow.
Compound	Outcome measure	Measured number
CC1(C)CN(C(=O)Cc2ccc(OCC[C@@H]3C[C@@H]3C3CCN(c4ncc(Cl)cn4)CC3)cc2F)Cc2nnc(C(F)(F)F)n21	pEC50	8.96
O=C(Cc1ccc(OCC[C@@H]2C[C@@H]2C2CCN(c3ncc(Cl)cn3)CC2)cc1F)NC1CCC(F)(F)C1 (stereo partly shown)	pEC50	8.64
O=C(Cc1ccc(OCC[C@@H]2C[C@@H]2C2CCN(c3ncc(Cl)cn3)CC2)cc1F)N1CCc2oncc2C1	pEC50	9.03
CC1CCC(C)N1C(=O)Cc1ccc(OCC[C@@H]2C[C@@H]2C2CCN(c3ncc(Cl)cn3)CC2)cc1F (stereo partly shown)	pEC50	8.14
COc1cnc(N2CCC([C@H]3C[C@H]3CCOc3cc(F)c(CC(=O)N4CC(O)C4)c(F)c3)CC2)nc1	pEC50	9.23

[A] Cc1n[nH]c2c1CN(C(=O)Cc1ccc(OCC[C@@H]3C[C@@H]3C3CCN(c4ncc(Cl)cn4)CC3)cc1F)CC2
[B] O=C(Cc1ccc(OCC[C@@H]2C[C@@H]2C2CCN(c3ncc(Cl)cn3)CC2)cc1F)N1CCn2nc(C3CC3)nc2C1
[C] O=C(Cc1ccc(OCC[C@@H]2C[C@@H]2C2CCN(c3ncc(Cl)cn3)CC2)cc1F)N1CCc2scnc2C1
[D] O=C(Cc1ccc(OCC[C@@H]2C[C@@H]2C2CCN(c3ncc(Cl)cn3)CC2)cc1F)N1CCCc2ncccc21
[E] CCOc1cnc(N2CCC([C@H]3C[C@H]3CCOc3cc(F)c(CC(=O)N4CCOCC4)c(F)c3)CC2)nc1
Order by pEC50, ascending. Reply with the labels, ordered as the question asks.
D, A, B, C, E
(D: 8.10, A: 8.49, B: 8.92, C: 9.22, E: 9.59)

// provenance: patent US9018224B2
